Test: inhibition of NOD2-driven NF-kB reporter – cell-based, luminescence, uHTS, HEK293 (AID 1566)
Settings: HEK293 NOD2/NF-kB luciferase reporter, at 4 µM, hits give high values
About 1,800 (0.62%) of roughly 290,000 compounds were called active. The sample holds actives, similar compounds and a random draw of the others, so the mix is not that of the screen.
Attribute: inhibition
endpoint: inhibition

INSERT INTO results (molecule, reported_value) VALUES
  ('Cc1ccc2cccc(OC(=O)N(C)c3ccccc3)c2n1', '5.1% (inactive)'),
  ('CC(Cc1ccccc1)NC(=O)Cc1ccc([N+](=O)[O-])cc1 (stereo not drawn)', '4.1% (inactive)'),
  ('CCOc1ccc(-n2c(-c3cccs3)nc3ccccc3c2=O)cc1', '21.3% (inactive)'),
  ('CC(=O)OC1CC[C@]2(C#N)[C@H]3CC[C@]4(C)[C@H](C5C=CC(=O)O5)CCC4(O)C3CCC2(O)C1 (stereo partly drawn)', '75% (active)'),
  ('C[C@H]1O[C@@H](O[C@H]2[C@@H](O)C[C@H](O[C@H]3[C@@H](O)C[C@H](O[C@H]4CC[C@@]5(C)[C@H](CC[C@@H]6[C@@H]5CC[C@]5(C)[C@@H](C7=CC(=O)OC7)CC[C@]65O)C4)O[C@@H]3C)O[C@@H]2C)C[C@H](O)[C@@H]1O', '73.9% (active)'),
  ('FC(F)(F)c1cccc(C2NCc3ccccc3-n3cccc32)c1 (stereo not drawn)', '9.8% (inactive)'),
  ('C=C(CO)CC1CC(O)[C@]2(C)OC3CC4OC5C[C@]6(C)O[C@]7(C)CCC8OC9C[C@]%10(C)OC%11C(C)=CC(=O)OC%11CC%10OC9C[C@@H](C)C8OC7CC6O[C@]5(C)C/C=C\C4OC3CC2O1 (stereo partly drawn)', '4.7% (inactive)'),
  ('CC(=O)Nc1cc(C(=O)N2CCC3(CC2)OCCO3)ccc1S(=O)(=O)c1ccc(Cl)cc1', '6.8% (inactive)'),
  ('O=C(Cn1nc(Cc2cccnc2)c2ccccc2c1=O)N1CCC2(CC1)OCCO2', '20.3% (inactive)'),
  ('COc1ccc(CNCCc2c(C)[nH]c3ccc(OC(F)(F)F)cc23)c(OC)c1', '57.8% (active)'),
  ('Clc1ccccc1NC1=NCCCS1', '-11.5% (inactive)'),
  ('O=C(c1ccc(N2CCCCCC2)c([N+](=O)[O-])c1)N1CCC2(CC1)OCCO2', '73.2% (active)'),
  ('COC(=O)C(C)NC(=S)N1CC2C[C@@H](C1)Cn1c2cccc1=O (stereo partly drawn)', '14.9% (inactive)'),
  ('CCn1nc(-c2cccs2)nc2c(=O)n(C)c(=O)nc1-2', '72.1% (active)'),
  ('COc1ccc2[nH]c(C)c(CCNCc3cc(OC)c(OC)c(OC)c3)c2c1', '6.9% (inactive)'),
  ('CN1CC(C(=O)c2ccc([N+](=O)[O-])cc2)C(c2ccc(Cl)cc2)C1 (stereo not drawn)', '16.2% (inactive)'),
  ('COc1ccc(C(=O)N/N=C/C23CC[C@@H](O)CC2(O)CC[C@@H]2[C@@H]3CCC3(C)C(C4=CC(=O)OC4)CCC23O)cc1 (stereo partly drawn)', '27.3% (inactive)'),
  ('CC(=O)Nc1cc(C(=O)N2CCC3(CC2)OCCO3)ccc1S(=O)(=O)c1ccc(C)cc1', '52.9% (active)');
